- target.entity: Protein kinase C zeta type (Homo sapiens, UniProt Q05513)
- Sequence (Q05513 whole entry): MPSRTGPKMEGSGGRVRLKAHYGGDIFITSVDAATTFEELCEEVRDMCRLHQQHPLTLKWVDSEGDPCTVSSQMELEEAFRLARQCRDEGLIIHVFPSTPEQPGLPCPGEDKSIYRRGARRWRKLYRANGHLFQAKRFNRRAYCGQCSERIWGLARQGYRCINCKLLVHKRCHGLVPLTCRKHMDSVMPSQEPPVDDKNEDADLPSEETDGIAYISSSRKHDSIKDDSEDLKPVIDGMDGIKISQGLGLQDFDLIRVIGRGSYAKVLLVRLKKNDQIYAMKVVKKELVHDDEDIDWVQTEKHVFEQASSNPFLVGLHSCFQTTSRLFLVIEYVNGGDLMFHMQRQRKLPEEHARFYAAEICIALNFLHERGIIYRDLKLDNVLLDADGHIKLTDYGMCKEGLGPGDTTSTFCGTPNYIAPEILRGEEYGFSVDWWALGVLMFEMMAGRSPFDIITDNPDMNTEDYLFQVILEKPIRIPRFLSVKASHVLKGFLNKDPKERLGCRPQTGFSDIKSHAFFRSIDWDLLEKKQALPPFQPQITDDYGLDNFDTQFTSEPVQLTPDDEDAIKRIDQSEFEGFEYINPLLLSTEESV
pIC50: −log10 of the molar value.
value.kind: pIC50

> print(dat)
                                smiles.data  value.kind  meas.value
1  O=C(N[C@@H]1CCC[C@H]1COC(=O)c1cc(O)c(C(=O)c2c(O)cccc2C(=O)O)c(O)c1)c1ccc(O)cc1       pIC50      < 4.30
2  O=C(N[C@@H]1CCC[C@H]1OCc1cc(O)c(C(=O)c2c(O)cccc2C(=O)O)c(O)c1)c1ccc(O)cc1       pIC50      < 4.30
3  O=C(N[C@@H]1CNC[C@H]1NC(=O)c1cc(O)c(C(=O)c2c(O)cccc2C(=O)O)c(O)c1)c1ccc(O)cc1       pIC50        5.02
4  O=C(NC[C@@H]1CCC[C@H]1NC(=O)c1ccc(O)cc1)c1cc(O)c(C(=O)c2c(O)cccc2C(=O)O)c(O)c1       pIC50      < 4.30
5  CN(C(=O)c1cc(O)c(C(=O)c2c(O)cccc2C(=O)O)c(O)c1)[C@H]1CCCNC[C@H]1NC(=O)c1ccc(O)cc1       pIC50      < 4.30
